- Measured On: mRORγ (Mus musculus)
- Construct: expressed in transfected cells; host or cells: CHO cells, transient transfection
- Measurement Notes: Transcriptional assay, Gal4-mRORγ with luciferase reporter in CHO cells
- Assay type: cell-based
- Condition Set: Table 7; taken from Table 1; read-out: Assay EC50 in micromolar at mRORγ Transcriptional
Metric: pEC50
Convention used: pEC50 is expressed as -log10 of the molar concentration.

Query :: What does the data say about its pEC50? Entry: CCN(c1ccc(C(O)(C(F)(F)F)C(F)(F)F)cc1)S(=O)(=O)c1ccc(C)cc1
Result :: 6.68

Query :: Likewise for CCCCc1ccc(S(=O)(=O)N(CC)c2ccc(C(O)(C(F)(F)F)C(F)(F)F)cc2)cc1 ?
Result :: 5.44

Query :: Likewise for CCN(c1ccc(C(O)(C(F)(F)F)C(F)(F)F)cc1)S(=O)(=O)c1ccc(Br)cc1 ?
Result :: 6.92

Query :: Likewise for CCN(c1ccc(C(O)(C(F)(F)F)C(F)(F)F)cc1)S(=O)(=O)c1ccc([N+](=O)[O-])cc1 ?
Result :: 6.59

====

Can you tell me Emax for the items I'm about to list?
- Measured On: mLXRα (Liver X receptor alpha) (Mus musculus, UniProt Q9Z0Y9)
- Construct: 172-455; expressed in transfected cells; host or cells: CHO cells, transient transfection
- Sequence (Q9Z0Y9 172-445 limits assumed): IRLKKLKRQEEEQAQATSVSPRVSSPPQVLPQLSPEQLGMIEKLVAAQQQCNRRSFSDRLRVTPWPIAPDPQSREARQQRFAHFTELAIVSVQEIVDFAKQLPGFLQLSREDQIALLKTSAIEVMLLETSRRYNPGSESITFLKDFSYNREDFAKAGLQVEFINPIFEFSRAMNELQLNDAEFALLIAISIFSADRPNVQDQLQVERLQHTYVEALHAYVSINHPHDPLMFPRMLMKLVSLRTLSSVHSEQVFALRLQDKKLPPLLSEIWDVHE
- Measurement Notes: Transcriptional assay of LXRα (Gal4-LXRα hybrid)
- Assay type: cell-based

Query :: What does the data say about its Emax? Entry: O=C(O)CN(c1ccc(C(O)(C(F)(F)F)C(F)(F)F)cc1)S(=O)(=O)c1ccccc1 [OR-1046]
Result :: < 5%

Query :: Likewise for CCN(c1ccc(C(OC)(C(F)(F)F)C(F)(F)F)cc1)S(=O)(=O)c1ccccc1 [OR-1030] ?
Result :: < 5%

Query :: Likewise for CCN(c1ccc(C(O)(C(F)(F)F)C(F)(F)F)cc1)S(=O)(=O)c1ccccc1 [OR-1031] ?
Result :: > 80%

Query :: Likewise for O=S(=O)(c1ccccc1)N(CC(F)(F)F)c1ccc(C(O)(C(F)(F)F)C(F)(F)F)cc1 [Compound T0901317, reference compound] ?
Result :: 100%

Query :: Likewise for CCN(c1ccc(C(O)(C(F)(F)F)C(F)(F)F)cc1)S(=O)(=O)c1ccc([N+](=O)[O-])cc1 [OR-1050] ?
Result :: > 80%

Query :: Likewise for CCN(c1ccc(C(O)(C(F)(F)F)C(F)(F)F)cc1)S(=O)(=O)c1ccc(Br)cc1 [OR-1048] ?
Result :: > 80%

Query :: Likewise for CCCCc1ccc(S(=O)(=O)N(CC)c2ccc(C(O)(C(F)(F)F)C(F)(F)F)cc2)cc1 [OR-1047] ?
Result :: < 5%

Query :: Likewise for CCN(c1ccc(C(O)(C(F)(F)F)C(F)(F)F)cc1)S(=O)(=O)c1ccc(C)cc1 [OR-1052] ?
Result :: > 80%

====

Can you tell me pEC50 for the items I'm about to list?
- Measured On: mRORγ (Mus musculus, UniProt P51450)
- Construct: expressed in transfected cells; host or cells: CHO cells, transient transfection
- Sequence (P51450 with tags, fused parts or gaps): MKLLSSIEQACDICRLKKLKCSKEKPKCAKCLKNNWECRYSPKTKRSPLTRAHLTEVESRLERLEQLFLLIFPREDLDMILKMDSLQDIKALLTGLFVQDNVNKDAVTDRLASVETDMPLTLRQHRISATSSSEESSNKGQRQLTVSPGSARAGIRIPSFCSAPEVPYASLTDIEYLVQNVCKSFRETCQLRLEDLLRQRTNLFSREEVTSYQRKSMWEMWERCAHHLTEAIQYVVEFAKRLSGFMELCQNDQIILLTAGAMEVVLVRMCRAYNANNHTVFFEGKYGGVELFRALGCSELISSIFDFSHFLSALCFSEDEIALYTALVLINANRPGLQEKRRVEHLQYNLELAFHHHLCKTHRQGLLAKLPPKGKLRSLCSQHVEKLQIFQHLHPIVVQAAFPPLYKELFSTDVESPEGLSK
- Measurement Notes: Transcriptional assay, Gal4-mRORγ with luciferase reporter in CHO cells
- Type: cell-based
- Condition Set: Table 2; agonists; antagonist OR-376 (1.5 μM) added to reduce basal transcriptional activity; read-out: EC50 in micromolar at mRORγ Transcriptional
- Description: The complete Gal4-mRORγ nucleotide sequence is shown below: […] Plates are maintained at 37° C. in a humidified atmosphere with 7% CO2 overnight. […] Percent viability was determined as 2 hour fluorescence, minus background at t=0 hours, normalized to DMSO controls. […] Luminescence is detected with a Victor 2-V plate reader (Perkin-Elmer) and normalized to luciferase activity of DMSO control wells alone.
Convention used: pEC50 is expressed as -log10 of the molar concentration.

Query :: What does the data say about its pEC50? Entry: COCCCC(C)C1CCC2C3CC(O)C4CC(O)CCC4(C)C3CCC12C (stereo not drawn)
Result :: 5.22

Query :: Likewise for CC(=O)CCC(C)C1CCC2C3CC(O)C4CC(O)CCC4(C)C3CCC12C (stereo not drawn) ?
Result :: 5.39

Query :: Likewise for COC(C)CCC(C)C1CCC2C3CC(O)C4CC(O)CCC4(C)C3CCC12C (stereo not drawn) ?
Result :: 6.36

Query :: Likewise for CC(CCC(C)(C)O)C1CCC2C3CC(O)C4CC(O)CCC4(C)C3CCC12C (stereo not drawn) ?
Result :: 5.08

Query :: Likewise for CC(O)CCC(C)C1CCC2C3CC(O)C4CC(O)CCC4(C)C3CCC12C (stereo not drawn) ?
Result :: 5.08

Query :: Likewise for COC(=O)CCC(C)C1CCC2C3CC(O)C4CC(O)CCC4(C)C3CCC12C (stereo not drawn) ?
Result :: 5.82

Query :: Likewise for COC(C)(C)CCC(C)C1CCC2C3CC(O)C4CC(O)CCC4(C)C3CCC12C (stereo not drawn) ?
Result :: 6.25

Query :: Likewise for CC(CCCO)C1CCC2C3CC(O)C4CC(O)CCC4(C)C3CCC12C (stereo not drawn) ?
Result :: 5.39

Query :: Likewise for CC(CCC(=O)N(C)C)C1CCC2C3CC(O)C4CC(O)CCC4(C)C3CCC12C (stereo not drawn) ?
Result :: 5.28
